Source: the supplement of paper PMC5998384

System: HeLa Kyoto
procedure.details: thermal stability score vs G1/S (z-score of summed log2 fold changes over temperatures); higher = more thermally stable than in G1/S
conditions.used: cell cycle stage: early G1 (4.5 h after nocodazole release)
value.type: thermal stability score
API note: the answer field is a bare number with no unit suffix.

Which thermal stability score value is on record for MSSASGLRRGHPAGGEENMTETDAFYKREMFDPAEKYKMDHRRRGIALIFNHERFFWHLTLPERRGTCADRDNLTRRFSDLGFEVKCFNDLKAEELLLKIHEVSTVSHADADCFVCVFLSHGEGNHIYAYDAKIEIQTLTGLFKGDKCHSLVGKPKIFIIQACRGNQHDVPVIPLDVVDNQTEKLDTNITEVDAASVYTLPAGADFLMCYSVAEGYYSHRETVNGSWYIQDLCEMLGKYGSSLEFTELLTLVNRKVSQRRVDFCKDPSAIGKKQVPCFASMLTKKLHFFPKSN [CASP6] ?
-0.607

// returns reported thermal stability score for input MSLLLYYALPALGSYAMLSIFFLRRPHLLHTPRAPTFRIRLGAHRGGSGELLENTMEAMENSMAQRSDLLELDCQLTRDRVVVVSHDENLCRQSGLNRDVGSLDFEDLPLYKEKLEVYFSPGHFAHGSDRRMVRLEDLFQRFPRTPMSVEIKGKNEELIREIAGLVRRYDRNEITIWASEKSSVMKKCKAANPEMPLSFTISRGFWVLLSYYLGLLPFIPIPEKFFFCFLPNIINRTYFPFSCSCLNQLLAVVSKWLIMRKSLIRHLEERGVQVVFWCLNEESDFEAAFSVGATGVITDYPTALRHYLDNHGPAARTS [GDPD3]
-0.274

# get_value(readout='thermal stability score', item= MNNLSFSELCCLFCCPPCPGKIASKLAFLPPDPTYTLMCDESGSRWTLHLSERADWQYSSREKDAIECFMTRTSKGNRIACMFVRCSPNAKYTLLFSHGNAVDLGQMSSFYIGLGSRINCNIFSYDYSGYGASSGKPTEKNLYADIEAAWLALRTRYGIRPENVIIYGQSIGTVPSVDLAARYESAAVILHSPLTSGMRVAFPDTKKTYCFDAFPNIDKISKITSPVLIIHGTEDEVIDFSHGLALFERCQRPVEPLWVEGAGHNDVELYGQYLERLKQFVSQELVNL [ABHD17B] )
-2.83

###

Please provide measured thermal stability score for the entries that follow.
Tested on: HeLa Kyoto;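 also: synchronized HeLa Kyoto cells, proteins quantified by TMT10plex mass spectrometry, three biological replicates, mitosis taken 0.5 h after nocodazole release, G1/S directly after double thymidine block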
procedure.details: thermal stability score vs G1/S (z-score of summed log2 fold changes over temperatures); higher = more thermally stable than in G1/S
conditions.used: cell cycle stage: mitosis
Write no unit; give the number alone.

thermal stability score for MCNTPTYCDLGKAAKDVFNKGYGFGMVKIDLKTKSCSGVEFSTSGHAYTDTGKASGNLETKYKVCNYGLTFTQKWNTDNTLGTEISWENKLAEGLKLTLDTIFVPNTGKKSGKLKASYKRDCFSVGSNVDIDFSGPTIYGWAVLAFEGWLAGYQMSFDTAKSKLSQNNFALGYKAADFQLHTHVNDGTEFGGSIYQKVNEKIETSINLAWTAGSNNTRFGIAAKYMLDCRTSLSAKVNNASLIGLGYTQTLRPGVKLTLSALIDGKNFSAGGHKVGLGFELEA [VDAC3] ?
-4.76

I'd like to know its thermal stability score. The sequence in question is MVSWMISRAVVLVFGMLYPAYYSYKAVKTKNVKEYVRWMMYWIVFALYTVIETVADQTVAWFPLYYELKIAFVIWLLSPYTKGASLIYRKFLHPLLSSKEREIDDYIVQAKERGYETMVNFGRQGLNLAATAAVTAAVKSQGAITERLRSFSMHDLTTIQGDEPVGQRPYQPLPEAKKKSKPAPSESAGYGIPLKDGDEKTDEEAEGPYSDNEMLTHKGLRRSQSMKSVKTTKGRKEVRYGSLKYKVKKRPQVYF [REEP3]
-0.732

Returns the measured thermal stability score for the input sequence. Input: MVRFKHRYLLCELVSDDPRCRLSLDDRVLSSLVRDTIARVHGTFGAAACSIGFAVRYLNAYTGIVLLRCRKEFYQLVWSALPFITYLENKGHRYPCFFNTLHVGGTIRTCQKFLIQYNRRQLLILLQNCTDEGEREAIQKSVTRSCLLEEEEESGEEAAEAME [POP5]
-2.6

Quick one: thermal stability score of MAATSLMSALAARLLQPAHSCSLRLRPFHLAAVRNEAVVISGRKLAQQIKQEVRQEVEEWVASGNKRPHLSVILVGENPASHSYVLNKTRAAAVVGINSETIMKPASISEEELLNLINKLNNDDNVDGLLVQLPLPEHIDERRICNAVSPDKDVDGFHVINVGRMCLDQYSMLPATPWGVWEIIKRTGIPTLGKNVVVAGRSKNVGMPIAMLLHTDGAHERPGGDATVTISHRYTPKEQLKKHTILADIVISAAGIPNLITADMIKEGAAVIDVGINRVHDPVTAKPKLVGDVDFEGVRQKAGYITPVPGGVGPMTVAMLMKNTIIAAKKVLRLEEREVLKSKELGVATN [MTHFD2] ?
-0.889

// thermal stability score lookup, key: MAQPPPDVEGDDCLPAYRHLFCPDLLRDKVAFITGGGSGIGFRIAEIFMRHGCHTVIASRSLPRVLTAARKLAGATGRRCLPLSMDVRAPPAVMAAVDQALKEFGRIDILINCAAGNFLCPAGALSFNAFKTVMDIDTSGTFNVSRVLYEKFFRDHGGVIVNITATLGNRGQALQVHAGSAKAAVDAMTRHLAVEWGPQNIRVNSLAPGPISGTEGLRRLGGPQASLSTKVTASPLQRLGNKTEIAHSVLYLASPLASYVTGAVLVADGGAWLTFPNGVKGLPDFASFSAKL [DECR2]
0.657

Using the record for MSQTAMSETYDFLFKFLVIGNAGTGKSCLLHQFIEKKFKDDSNHTIGVEFGSKIINVGGKYVKLQIWDTAGQERFRSVTRSYYRGAAGALLVYDITSRETYNALTNWLTDARMLASQNIVIILCGNKKDLDADREVTFLEASRFAQENELMFLETSALTGENVEEAFVQCARKILNKIESGELDPERMGSGIQYGDAALRQLRSPRRAQAPNAQECGC [RAB4A] , report its thermal stability score.
-3.68
